The reader will find reported MIC values listed item by item below.
# Tested on: Pseudomonas aeruginosa
# ASSAY_DETAILS: Antimicrobial activity against Pseudomonas aeruginosa after 24 hrs by microdilution technique in high salt condition
# Type: functional
Where a SMILES comes first, the peptide text is derived from it. Bridges are numbered along the chain shown (N, C = ends).

Example entries begin here.
>  <COMPOUND>
CC(C)C[C@H](NC(=O)[C@@H]1CSSC[C@H](NC(=O)[C@H](C)NC(=O)[C@H](C)NC(=O)[C@@H](N)CCCCN)C(=O)N[C@@H](C)C(=O)N[C@@H](C)C(=O)N[C@@H](Cc2cnc[nH]2)C(=O)N1)C(=O)N[C@@H](Cc1c[nH]c2ccccc12)C(=O)N[C@@H](CCCNC(=N)N)C(N)=O (H-KAACAAHCLWR-NH2; disulfide 4-8)

>  <READING>
> 200 µg/mL

$$$$
>  <COMPOUND>
CC(C)C[C@H](NC(=O)[C@@H]1CSSC[C@H](NC(=O)[C@H](C)NC(=O)[C@H](C)NC(=O)[C@@H](N)CC(=O)O)C(=O)N[C@@H](C)C(=O)N[C@@H](C)C(=O)N[C@@H](CCCCN)C(=O)N1)C(=O)N[C@@H](Cc1c[nH]c2ccccc12)C(=O)N[C@@H](CCCNC(=N)N)C(N)=O (H-DAACAAKCLWR-NH2; disulfide 4-8)

>  <READING>
> 200 µg/mL

$$$$

Shift focus to the following entry.
Inquiry: // fetch MIC; item: CC(C)C[C@H](NC(=O)[C@H](CS)NC(=O)[C@H](Cc1cnc[nH]1)NC(=O)[C@H](C)NC(=O)[C@H](C)NC(=O)[C@H](CS)NC(=O)[C@H](C)NC(=O)[C@H](C)NC(=O)[C@@H](N)CC(=O)O)C(=O)N[C@@H](Cc1c[nH]c2ccccc12)C(=O)N[C@@H](CCCNC(=N)N)C(N)=O (H-DAACAAHCLWR-NH2) ; system: Pseudomonas aeruginosa
Reply text: > 200 µg/mL
